Attribution: PubChem BioAssay

Documented composite z-score across a set of compounds
- System: XIP peptide (Xip251-270)
- assayName: compounds binding XIP fragment 251-270 – biochemical, small-molecule microarray, fluorescence 635/667 nm, 0.5 µg/mL protein, primary screen (AID 1183)
- assayConditions: fluorescence 635 nm, higher = more signal
Lab note: jot the number down without any unit.

Sample answers from the record:
C=CC[C@]1(C(=O)N(C)C)N=C(c2ccc(OCCCO)cc2)O[C@H]1c1ccccc1 : 0.643
COc1ccccc1CN1C(=O)c2ccccc2[C@@]2(Cc3ccccc3N(C3CC3)C2=O)[C@@H]1c1ccc(CO)cc1 : 0.53
O=C1NC(=O)C2C1C=CC(C(O)CCc1ccccc1)N2Nc1ccccn1 (stereo unspecified) : 0.932

*Q* Reported composite z-score, compound `CC(C)NC(=O)[C@@]1(Cc2ccccc2I)c2ccccc2C(=O)N(Cc2ccccc2C(F)(F)F)[C@H]1c1ccc(CO)cc1` : ____
*A* 0.815

*Q* Reported composite z-score, compound `O=C1O[C@@H](c2ccccc2)[C@@H](c2ccccc2)N2[C@@H](c3ccc(O)cc3)[C@]3(C(=O)Nc4ccc(C#CC5(O)CCCCCC5)cc43)[C@@H](C(=O)N3CCN(c4ncccn4)CC3)[C@H]12` : ____
*A* 0.559

*Q* Reported composite z-score, compound `CCC[C@@H]1C[C@@]1(CCC)[C@@H](NC(=O)c1ccco1)c1ccc(Cl)cc1` : ____
*A* -0.835

*Q* Reported composite z-score, compound `O=C(NCc1ccccc1)[C@]1(Cc2ccccc2)N=C(c2ccc(OCCCO)cc2)O[C@@H]1c1ccccc1` : ____
*A* 0.117

*Q* Reported composite z-score, compound `C=C(COC)C(=O)CC[C@H](OC(=O)c1ccccc1-c1ccccc1C(=O)O)c1ccc(OCCO)cc1` : ____
*A* 0.264

====

- assayName: probe aNOTCH3 binding on compound microarray – biochemical, small-molecule microarray, 635/667 nm fluorescence, primary screen (AID 1120);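 also: probe is a biotin-tagged antibody raised against NOTCH3 rather than NOTCH3 protein; score merges spot fluorescence near 667 nm with spot signal to noise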
- assayConditions: higher = more signal
attributeMeasured: composite z-score
Lab note: jot the number down without any unit.

Sample answers from the record:
O=C(CS)NCCCCCNC(=O)[C@@H]1C[C@@H]2C(=O)N3CCC[C@H]3C(=O)N2[C@@H]1c1ccc(O)cc1 : -0.0587
NC(=O)NCC#Cc1ccc2c(c1)[C@]1(C(=O)N2)[C@H](c2ccc(OCCO)cc2)N2[C@H](c3ccccc3)[C@H](c3ccccc3)OC(=O)[C@H]2[C@@H]1C(=O)N1CCN(c2ncccn2)CC1 : 0.108

*Q* Reported composite z-score, molecule `COCCOC(=O)N1C(=O)[C@@]2(c3ccccc31)[C@H](c1ccc(OCCO)cc1)N1[C@H](c3ccccc3)[C@H](c3ccccc3)OC(=O)[C@H]1[C@@H]2C(=O)NC[C@H](O)c1ccccc1` : ____
*A* 0.327

*Q* Reported composite z-score, molecule `COCCCNC(=O)[C@@]1(C)c2ccccc2C(=O)N(c2ccc(C)cn2)[C@H]1c1ccc(CO)cc1` : ____
*A* -0.463

====

- subjectOfTest: Torsin-1A-interacting protein 2 (Homo sapiens) (UniProt Q8NFQ8)
- Sequence (Q8NFQ8 whole entry, looked up): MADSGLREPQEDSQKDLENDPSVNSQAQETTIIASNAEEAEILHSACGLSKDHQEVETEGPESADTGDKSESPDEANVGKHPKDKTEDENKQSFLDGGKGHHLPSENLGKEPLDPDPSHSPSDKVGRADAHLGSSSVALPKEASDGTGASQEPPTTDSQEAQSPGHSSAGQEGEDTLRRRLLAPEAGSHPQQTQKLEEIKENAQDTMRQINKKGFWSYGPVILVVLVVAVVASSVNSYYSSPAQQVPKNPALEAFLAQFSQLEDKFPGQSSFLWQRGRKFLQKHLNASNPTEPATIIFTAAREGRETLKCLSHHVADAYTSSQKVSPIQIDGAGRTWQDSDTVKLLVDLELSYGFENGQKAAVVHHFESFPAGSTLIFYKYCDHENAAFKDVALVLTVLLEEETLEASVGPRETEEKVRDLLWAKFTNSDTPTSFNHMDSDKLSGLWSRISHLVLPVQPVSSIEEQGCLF
- assayName: small molecules binding lysate-expressed LULL1 – cell lysate, human LULL1 lysate, 635/667 nm fluorescence, primary screen (AID 1092);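 also: probe is lysate of COS7 cells overexpressing human LULL1; score merges per-feature 667 nm fluorescence with signal-to-noise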
- assayConditions: small-molecule microarray, hLULL1 lysate binding, 635 nm fluorescence; higher = more signal
attributeMeasured: composite z-score

*Q* Can you look up composite z-score on Torsin-1A-interacting protein 2 (Homo sapiens) (UniProt Q8NFQ8) for `CCCCC(=C=CC[C@H](O)c1cccc(OCCO)c1)C[C@H](O)COCc1ccccc1` ?
*A* 1.04

*Q* Can you look up composite z-score on Torsin-1A-interacting protein 2 (Homo sapiens) (UniProt Q8NFQ8) for `CC(C)NC(=O)[C@@]1(Cc2ccccc2I)c2ccccc2C(=O)N(Cc2ccccc2C(F)(F)F)[C@H]1c1ccc(CO)cc1` ?
*A* 2.84

*Q* Can you look up composite z-score on Torsin-1A-interacting protein 2 (Homo sapiens) (UniProt Q8NFQ8) for `Cc1ccc(F)cc1S(=O)(=O)N[C@@H]1CCN(C(=O)c2ccc(OC(C)C)cc2)C1` ?
*A* 1.03

*Q* Can you look up composite z-score on Torsin-1A-interacting protein 2 (Homo sapiens) (UniProt Q8NFQ8) for `COCCOC(=O)N1C(=O)[C@@]2(c3cc(C#Cc4ccc(OC)cc4)ccc31)[C@H](C(N)=O)[C@H]1C(=O)O[C@H](c3ccccc3)[C@H](c3ccccc3)N1[C@@H]2c1ccc(OCCO)cc1` ?
*A* 2.75
